Target: Calpain-1 catalytic subunit (Homo sapiens, UniProt P07384)
Assay: inhibitory activity measured against recombinant human Calpain-I receptor
Quick reference for pIC50 among some compounds
In plain terms, pIC50 is the concentration in mol/L turned into minus its base-10 logarithm.

Inquiry: Given COP(=O)(OC)C(=O)[C@@H](Cc1ccccc1)NC(=O)C(NC(=O)OCc1ccccc1)C(C)C (stereo not given in full) , state its recorded pIC50.
Reply text: 5.13

Inquiry: Now try CC(C)C(NC(=O)OCc1ccccc1)C(=O)N[C@H](Cc1ccccc1)C(=O)P(=O)(OCc1ccccc1)OCc1ccccc1 (stereo not given in full) .
Reply text: 5.22

Inquiry: Now try CCOC(=O)[C@@H](CC(C)C)NC(=O)C(CC(C)C)NC(=O)OCc1ccccc1 (stereo not given in full) .
Reply text: 6.22

Inquiry: Now try COP(=O)(OC)C(=O)[C@@H](CC(C)C)NC(=O)C(CC(C)C)NC(=O)OCc1ccccc1 (stereo not given in full) .
Reply text: 6.37

Inquiry: Now try CCOP(=O)(C(=O)[C@@H](CC(C)C)NC(=O)C(CC(C)C)NC(=O)OCc1ccccc1)c1ccccc1 (stereo not given in full) .
Reply text: 6.43

Inquiry: Now try CC(C)CC(NC(=O)OCc1ccccc1)C(=O)N[C@H](CC(C)C)C(=O)P(=O)(c1ccc(Cl)cc1)c1ccc(Cl)cc1 (stereo not given in full) .
Reply text: 6.46

Inquiry: Now try COP(=O)(O)C(=O)[C@@H](CC(C)C)NC(=O)C(CC(C)C)NC(=O)OCc1ccccc1 (stereo not given in full) .
Reply text: 5.28

----------
Target: Calpain-1 catalytic subunit (Homo sapiens, UniProt P07384)
Sequence (P07384 whole entry): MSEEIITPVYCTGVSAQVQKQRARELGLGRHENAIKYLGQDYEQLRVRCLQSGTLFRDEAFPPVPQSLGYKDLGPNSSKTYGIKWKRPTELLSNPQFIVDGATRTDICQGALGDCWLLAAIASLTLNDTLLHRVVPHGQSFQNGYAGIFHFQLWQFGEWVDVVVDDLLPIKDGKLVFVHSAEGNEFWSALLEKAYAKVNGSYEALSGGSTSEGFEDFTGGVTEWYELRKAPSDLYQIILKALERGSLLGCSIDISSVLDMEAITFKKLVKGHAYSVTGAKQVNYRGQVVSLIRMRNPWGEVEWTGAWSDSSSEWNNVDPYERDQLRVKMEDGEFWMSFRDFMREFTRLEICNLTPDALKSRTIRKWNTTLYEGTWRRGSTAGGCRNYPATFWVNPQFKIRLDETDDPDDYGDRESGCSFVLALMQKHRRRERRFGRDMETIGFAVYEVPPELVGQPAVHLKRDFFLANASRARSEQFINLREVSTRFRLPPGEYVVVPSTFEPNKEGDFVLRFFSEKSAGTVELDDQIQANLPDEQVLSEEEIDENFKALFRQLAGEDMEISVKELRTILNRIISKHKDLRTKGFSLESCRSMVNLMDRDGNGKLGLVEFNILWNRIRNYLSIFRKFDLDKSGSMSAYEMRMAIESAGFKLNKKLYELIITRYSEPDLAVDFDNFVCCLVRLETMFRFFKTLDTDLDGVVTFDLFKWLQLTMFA
Test: inhibitory activity measured against recombinant human Calpain-I receptor
pIC50: −log10 of the molar value.
readoutLabel: pIC50

CCCCOP(=O)(OCCCC)C(=O)[C@@H](Cc1ccccc1)NC(=O)C(NC(=O)OCc1ccccc1)C(C)C (stereo partly drawn); < 5.00

Inquiry: Given CC(C)CC(NC(=O)OCc1ccccc1)C(=O)N[C@H](CC(C)C)C(=O)P(C)(C)=O (stereo partly drawn) , state its recorded pIC50.
Reply text: < 5.00

Inquiry: Now try CCCCOP(=O)(OCCCC)C(=O)[C@@H](CC(C)C)NC(=O)C(CC(C)C)NC(=O)OCc1ccccc1 (stereo partly drawn) .
Reply text: < 5.00
